Below, each entry is listed with its recorded MIC.
System: Klebsiella pneumoniae
TEST NAME: Antibacterial activity against Klebsiella pneumoniae after 3 to 4 days by serial plate dilution method
Format: functional
Numeric answer only, unit µg/mL assumed.

[[record]]
molecule = "CC(C)Cc1ccc(C(C)c2nn(CN3CCN(C)CC3)c(=S)o2)cc1 (stereo not drawn)"
assay_target = "Klebsiella pneumoniae"
number = 12.5

[[record]]
molecule = "CCOc1ccccc1N1CCN(Cn2nc(Cc3ccc(SC)cc3)oc2=S)CC1"
assay_target = "Klebsiella pneumoniae"
number = 12.5


Item CSc1ccc(Cc2nn(CN3CCN(c4ccc(Cl)cc4)CC3)c(=S)o2)cc1 ; assay system Klebsiella pneumoniae; MIC reported as 6.25

Entry CSc1ccc(Cc2nn(CN3CCN(c4cccc(Cl)c4)CC3)c(=S)o2)cc1 : MIC on Klebsiella pneumoniae = 12.5

Reported Klebsiella pneumoniae MIC for item CCOc1ccccc1N1CCN(Cn2nc(C(C)c3ccc(CC(C)C)cc3)oc2=S)CC1 (stereo not drawn) was 25

Record CC(C)Cc1ccc(C(C)c2nn(CN3CCCCC3)c(=S)o2)cc1 (stereo not drawn) has Klebsiella pneumoniae MIC equal to 25

Entry CSc1ccc(Cc2nn(CN3CCN(C)CC3)c(=S)o2)cc1 , tested on Klebsiella pneumoniae, has a reported MIC of 12.5

Bench note, Klebsiella pneumoniae: COc1ccc(N2CCN(Cn3nc(C(C)c4ccc(CC(C)C)cc4)oc3=S)CC2)cc1 (stereo not drawn) , MIC reads 6.25

Entry O=C(O)c1cn(C2CC2)c2cc(N3CCNCC3)c(F)cc2c1=O ; assay system Klebsiella pneumoniae; MIC recorded at 6.25

Tested system Klebsiella pneumoniae; MIC recorded for CSc1ccc(Cc2nn(CN3CCN(c4ccc([N+](=O)[O-])cc4)CC3)c(=S)o2)cc1 was 6.25

Item: CSc1ccc(Cc2nn(CN3CCCCC3)c(=S)o2)cc1 | System: Klebsiella pneumoniae | MIC: 12.5

Fill in: Klebsiella pneumoniae MIC for CC(C)Cc1ccc(C(C)c2nn(CN3CCN(c4ccc(F)cc4)CC3)c(=S)o2)cc1 (stereo not drawn) = 6.25

# MIC measured on Klebsiella pneumoniae for item COc1ccc(N2CCN(Cn3nc(Cc4ccc(SC)cc4)oc3=S)CC2)cc1 = 12.5

The value of MIC recorded for CCOC(=O)C1CCN(Cn2nc(C(C)c3ccc(CC(C)C)cc3)oc2=S)CC1 (stereo not drawn) when tested on Klebsiella pneumoniae reads 12.5

# CC(C)Cc1ccc(C(C)c2nn(CN3CCN(c4ccc(Cl)cc4)CC3)c(=S)o2)cc1 (stereo not drawn) with Klebsiella pneumoniae: MIC is 12.5

Param item: CC(C)Cc1ccc(C(C)c2nn(CN3CCOCC3)c(=S)o2)cc1 (stereo not drawn) ; param system: Klebsiella pneumoniae; output MIC: 6.25

# lookup: CCOC(=O)C1CCN(Cn2nc(Cc3ccc(SC)cc3)oc2=S)CC1 on Klebsiella pneumoniae, MIC = 12.5

# value of MIC, Klebsiella pneumoniae, item CSc1ccc(Cc2nn(CN3CCOCC3)c(=S)o2)cc1 = 12.5

# MIC measured on Klebsiella pneumoniae for item CC(C)Cc1ccc(C(C)c2nn(CN3CCN(c4cccc(Cl)c4)CC3)c(=S)o2)cc1 (stereo not drawn) = 25
